Origin of the recorded values: PubChem BioAssay (Tox21)

Assay: qHTS RealTime-Glo MT Cell Viability Assay in HEK293 cells - 32 hour (AID 1224868); note: nearly all actives have a fitted effect of over 50% in size
Conditions: RealTime-Glo luminescence; series mostly up to 76.8 µM
Results filed as inconclusive are left out. The source made the active and inactive calls. Calls come from the whole dose curve; as a rule, active = well fitted cell-killing curve with a large enough effect in the repeat runs; inconclusive = weak or mixed curves, or effect the other way; inactive = flat fitted curve, though single readings scatter.
// allowed return values: active, inactive

Cc1ccc(C(=O)O)cc1: inactive
CCCC1CCC(=O)CC1: inactive
CCc1ccc(Br)cc1: inactive
CCN(CCN)c1cccc(C)c1: inactive
CC(CO)Oc1ccccc1 (configuration not stated): inactive
Cc1ccc(N/N=c2\c(=O)cc/c(=N\Nc3ccc(S(=O)(=O)O)cc3)c2=O)c(C)c1: inactive
O=C(O)[C@H](O)[C@@H](O)[C@H](O[C@@H]1O[C@H](CO)[C@H](O)[C@H](O)[C@H]1O)[C@H](O)CO: inactive
CC1(C)CCC[C@]2(C)[C@H]3CCO[C@]3(C)CC[C@@H]12: inactive

Call for entry CCC(C)[O-].CCC(C)[O-].CCOC(=O)/C=C(/C)[O-].[Al+3] :
inactive

Which outcome was assigned to CCO[Si](OCC)(OCC)OCC in this test?
inactive

So what was the verdict on CC(=O)CC(=O)Nc1ccc(S(=O)(=O)O)cc1 in this test?
inactive

Outcome logged for CC(C)(C)c1ccc(C(O)CCCN2CCC(C(O)(c3ccccc3)c3ccccc3)CC2)cc1 (configuration not stated) in this assay:
active
